Below is a list of entries, each paired with its recorded pIC50 value.
Target: ANO1 (Homo sapiens, UniProt Q5XXA6, DEL476-501)
Test: YFP fluorescence quenching assay in ANO1-overexpressing FRT cell line
# pIC50 is unitless: minus log10 of the molar concentration; print number only

Sample records with pIC50:
# molecule, pIC50
records = [
    ("CC(C)(C)c1ccc(C(=O)Nc2sc3c(c2C(=O)O)-c2ccccc2CC3)cc1 [Compound 53]", 5.29),
    ("CC(C)(C)c1ccc(C(=O)Nc2scc(-c3ccc(C(C)(C)C)cc3)c2C(=O)O)cc1 [Compound 36]", 5.44),
    ("CC(C)(C)c1ccc(C(=O)Nc2scc(-c3ccc(-c4ccccc4)cc3)c2C(=O)O)cc1 [Compound 37]", 5.64),
    ("CC(C)(C)c1ccc(C(=O)Nc2scc(-c3ccc(Cl)cc3)c2C(=O)O)cc1 [Compound 34]", 5.87),
    ("O=C(O)c1c(NC(=O)c2cccc3ccccc23)sc2c1-c1ccccc1C2 [Compound 51]", 5.66),
    ("Cc1ccc(C(=O)Nc2scc(-c3ccc(Cl)cc3)c2C(=O)O)c2ccccc12 [Compound 46]", 4.84),
    ("O=C(Nc1scc(-c2ccc(Cl)cc2)c1C(=O)O)c1ccc(Cl)cc1Cl [Compound 44]", 5.91),
    ("O=C(O)c1c(-c2ccc(Cl)cc2)csc1NC(=O)c1cccc2ccccc12 [Compound 42]", 6.10),
    ("O=C(Nc1sc2c(c1C(=O)O)-c1ccccc1C2)c1cccs1 [Compound 49]", 4.95),
    ("CC(C)(C)c1ccc(C(=O)Nc2scc(-c3ccc(F)cc3)c2C(=O)O)cc1 [Compound 33]", 5.02),
]

Consider the record given below.
pIC50 for O=C(Nc1sc2c(c1C(=O)O)-c1ccccc1C2)c1ccc2ccccc2c1 [Compound 50] ? 5.72
